Read-out: Cytochrome P450 (CYP1A1), CYP1A1 (gene 1543)
TEST: LTEA_HepaRG_CYP1A1: Life Technologies and Expression Analysis (LTEA) Assay for Cytochrome P450 (CYP1A1) using HepaRG (AID 2283454)
REPORTED CONDITIONS: mRNA level, 48 h; actives raise or lower the signal
Activity calls are given as the source filed them. The calls were made as follows: active = hit-call score of the fitted dose curve at least 0.9, where 1 is the maximum; inactive = score below 0.9.
VALUE KIND: AC50

Completed entries (count: 5):
O=[N+]([O-])c1ccc(O)c([N+](=O)[O-])c1 : 71.5 µM (active)
O=C(O)C(F)(F)C(F)(F)C(F)(F)C(F)(F)C(F)(F)C(F)(F)F : inactive
CCOP(=S)(OCC)SCSP(=S)(OCC)OCC : 33.1 µM (active)
CC(C)(C)CC(C)(C)c1ccc(O)cc1 : 81.5 µM (active)
CC(C)(c1ccccc1)c1ccc(O)c(C(C)(C)c2ccccc2)c1 : 35.8 µM (active)

I need AC50 for every entry listed below, if you could help.
1. CCCCCCCCc1ccc(O)cc1
2. CN(C)N=O
3. CC(C)(C)c1cc(O)ccc1O
4. Oc1cccc2cccnc12
5. O=C1C2(Cl)C3(Cl)C4(Cl)C(Cl)(Cl)C5(Cl)C3(Cl)C1(Cl)C5(Cl)C24Cl (configuration not stated)
6. CCOP(=S)(OCC)Oc1nc(Cl)c(Cl)cc1Cl
7. O=C(O)C(F)(F)C(F)(F)C(F)(F)C(F)(F)C(F)(F)C(F)(F)C(F)(F)C(F)(F)C(F)(F)C(F)(F)F

1: inactive; 2: inactive; 3: inactive; 4: inactive; 5: inactive; 6: 34.4 µM (active); 7: inactive
